The reported measurements were obtained from patent US12466817B2.

TARGET UNDER TEST: CCR2 (Homo sapiens)
Sequence (P41597 whole entry, species assumed): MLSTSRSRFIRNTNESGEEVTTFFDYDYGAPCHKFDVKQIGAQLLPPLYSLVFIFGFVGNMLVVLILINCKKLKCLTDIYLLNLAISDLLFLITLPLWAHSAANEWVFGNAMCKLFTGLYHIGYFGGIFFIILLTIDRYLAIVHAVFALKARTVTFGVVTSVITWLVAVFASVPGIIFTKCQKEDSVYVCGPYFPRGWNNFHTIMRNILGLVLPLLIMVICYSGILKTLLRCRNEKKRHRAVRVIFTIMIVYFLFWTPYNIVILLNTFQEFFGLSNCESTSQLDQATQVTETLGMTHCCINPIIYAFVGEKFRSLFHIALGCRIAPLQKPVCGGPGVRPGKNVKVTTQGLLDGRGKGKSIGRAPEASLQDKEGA
RUN DESCRIPTION: CCR2 FLIPR Calcium assay (intracellular calcium signaling)
TEST SETTINGS: HEK293 host cells, clone C7; agonist MCP-1; Fluo-4 calcium signal
Catalogue of molecules with associated pIC50
The meaning of pIC50 here: minus log10 of the concentration in molar units.

The cases that follow already have their pIC50 on record.
MOLECULE	RECORDED MEASUREMENT
CCCCOCCOc1ccc(-c2ccc3c(c2)/C=C(/C(=O)Nc2ccc([S+]([O-])Cc4cnccc4CC)cc2)CCCN3CC2CCOCC2)cc1 (centres unmarked)	7.75
CCCCOCCOc1ccc(-c2ccc3c(c2)C=C(C(=O)Nc2ccc([S+]([O-])Cc4cnc(C)cc4CC)cc2)CCCN3CC2CCOCC2)cc1 (single isomer, unassigned) [WX013]	7.70
CCCCOCCOc1ccc(-c2ccc3c(c2)/C=C(/C(=O)Nc2ccc([S@+]([O-])Cc4c(CC)ccnc4C)cc2)CCCN3C[C@H]2CCCO2)cc1 (single isomer, unassigned) [WX011]	8.94
CCCCOCCOc1ccc(-c2ccc3c(c2)C=C(C(=O)Nc2ccc([S+]([O-])Cc4cnccc4CC)cc2)CCCN3CC2COCCO2)cc1 (single isomer, unassigned) [WX002]	7.71
CCCCOCCOc1ccc(-c2ccc3c(c2)/C=C(/C(=O)Nc2ccc([S@+]([O-])Cc4c(CC)ccnc4C)cc2)CCCN3C[C@H]2CCCO2)cc1 (single isomer, unassigned) [WX010]	7.86
CCCCOCCOc1ccc(-c2ccc3c(c2)C=C(C(=O)Nc2ccc([S+]([O-])Cc4cnccc4CC)cc2)CCCN3CC2CCCO2)cc1 (single isomer, unassigned) [WX004]	7.71
CCCCOCCOc1ccc(-c2ccc3c(c2)C=C(C(=O)Nc2ccc([S+]([O-])Cc4cnc(C)cc4CC)cc2)CCCN3CC2CCOCC2)cc1 (single isomer, unassigned) [WX012]	8.82
CCCCOCCOc1ccc(-c2ccc3c(c2)C=C(C(=O)Nc2ccc([S+]([O-])Cc4cnccc4CC)cc2)CCCN3CC2CCCO2)cc1 (single isomer, unassigned) [WX005]	7.68

Data point: CCCCOCCOc1ccc(-c2ccc3c(c2)C=C(C(=O)Nc2ccc([S+]([O-])Cc4c(CC)ccnc4C)cc2)CCCN3CC2CCCO2)cc1 (single isomer, unassigned) [WX009] ; pIC50 = 8.74

Data point: CCCCOCCOc1ccc(-c2ccc3c(c2)C=C(C(=O)Nc2ccc([S+]([O-])Cc4c(CC)ccnc4C)cc2)CCCN3CC2CCOCC2)cc1 (single isomer, unassigned) [WX007] ; pIC50 = 8.71

Data point: CCCCOCCOc1ccc(-c2ccc3c(c2)/C=C(/C(=O)Nc2ccc([S@+]([O-])Cc4cnc(C)cc4CC)cc2)CCCN3C[C@H]2CCCO2)cc1 (single isomer, unassigned) [WX017] ; pIC50 = 7.47

###

Catalogue of compounds with associated IC50
TARGET UNDER TEST: CCR5 (Homo sapiens, UniProt P51681)
Sequence (P51681 whole entry, species assumed): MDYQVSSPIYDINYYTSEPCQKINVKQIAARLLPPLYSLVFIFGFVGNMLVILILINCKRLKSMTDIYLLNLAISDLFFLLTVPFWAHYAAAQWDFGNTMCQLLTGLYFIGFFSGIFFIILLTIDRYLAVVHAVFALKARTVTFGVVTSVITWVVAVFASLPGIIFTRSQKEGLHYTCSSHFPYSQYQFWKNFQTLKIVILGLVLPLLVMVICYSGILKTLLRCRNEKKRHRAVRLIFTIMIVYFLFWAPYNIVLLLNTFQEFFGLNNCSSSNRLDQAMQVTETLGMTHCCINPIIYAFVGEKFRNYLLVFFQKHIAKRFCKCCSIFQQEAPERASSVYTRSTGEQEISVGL
RUN DESCRIPTION: CCR5 FLIPR Calcium assay (intracellular calcium signaling)
TEST SETTINGS: HEK293 host cells, clone C13; agonist RANTES; Fluo-4 calcium signal
Value expressed in nM; do not type the unit.

The cases that follow already have their IC50 on record.
COMPOUND	IC50, nM
CCCCOCCOc1ccc(-c2ccc3c(c2)/C=C(/C(=O)Nc2ccc([S+]([O-])Cc4cnccc4CC)cc2)CCCN3CC2CCOCC2)cc1 (centres unmarked)	4.36
CCCCOCCOc1ccc(-c2ccc3c(c2)/C=C(/C(=O)Nc2ccc([S+]([O-])Cc4c(C)ccnc4C)cc2)CCCN3CC2CCCO2)cc1 (single isomer, unassigned) [WX020]	5.61
CCCCOCCOc1ccc(-c2ccc3c(c2)/C=C(/C(=O)Nc2ccc([S+]([O-])Cc4cnc(C)cc4C)cc2)CCCN3CC2CCOCC2)cc1 (centres unmarked)	13.6
CCCCOCCOc1ccc(-c2ccc3c(c2)/C=C(/C(=O)Nc2ccc([S+]([O-])Cc4c(C)ccnc4C)cc2)CCCN3CC2CCCO2)cc1 (single isomer, unassigned) [WX021]	5.89
CCCCOCCOc1ccc(-c2ccc3c(c2)C=C(C(=O)Nc2ccc([S+]([O-])Cc4c(C)ccnc4C)cc2)CCCN3CC2CCOCC2)cc1 (single isomer, unassigned) [WX019]	3.9
CCCCOCCOc1ccc(-c2ccc3c(c2)C=C(C(=O)Nc2ccc([S+]([O-])Cc4cnccc4CC)cc2)CCCN3CC2COCCO2)cc1 (single isomer, unassigned) [WX003]	11.7
CCCCOCCOc1ccc(-c2ccc3c(c2)C=C(C(=O)Nc2ccc([S+]([O-])Cc4cnc(C)cc4CC)cc2)CCCN3CC2CCOCC2)cc1 (single isomer, unassigned)	8.4

Consider now this further compound.
Data point: CCCCOCCOc1ccc(-c2ccc3c(c2)/C=C(/C(=O)Nc2ccc([S@+]([O-])Cc4c(CC)ccnc4CC)cc2)CCCN3CC2CCOCC2)cc1 ; IC50 = 4.26

###

Catalogue of compounds with associated pIC50
TARGET UNDER TEST: CCR2 (Homo sapiens)
RUN DESCRIPTION: CCR2 FLIPR Calcium assay (intracellular calcium signaling)
TEST SETTINGS: HEK293 host cells, clone C7; agonist MCP-1; Fluo-4 calcium signal
The meaning of pIC50 here: minus log10 of the concentration in molar units.

The cases that follow already have their pIC50 on record.
COMPOUND	TARGET UNDER TEST	pIC50
CCCCOCCOc1ccc(-c2ccc3c(c2)C=C(C(=O)Nc2ccc([S+]([O-])Cc4c(CC)ccnc4C)cc2)CCCN3CC2CCOCC2)cc1 (single isomer, unassigned) [WX006]	CCR2 (Homo sapiens)	7.80
CCCCOCCOc1ccc(-c2ccc3c(c2)/C=C(/C(=O)Nc2ccc([S@+]([O-])Cc4c(CC)ccnc4CC)cc2)CCCN3CC2CCOCC2)cc1	CCR2 (Homo sapiens)	8.65

Consider now this further compound.
Data point: CCCCOCCOc1ccc(-c2ccc3c(c2)C=C(C(=O)Nc2ccc([S+]([O-])Cc4c(CC)ccnc4C)cc2)CCCN3CC2CCCO2)cc1 (single isomer, unassigned) [WX008] ; pIC50 = 7.82
